Measured values drawn from ChEMBL document CHEMBL4152256 for this set.

METHOD_NOTES: Selectivity index, ratio of CC50 for human HepG2A16 cells by MTT assay to IC50 for multidrug-resistant Plasmodium falciparum FCR-3
Type: toxicity
STATED_CONDITIONS: HepG2A16 cells, read-out: Ratio CC50/IC50
Entries get a class label from measured selectivity ratio. See ranges: low band = under 40, middle band = from 40 up to 90, high band = 90 and over

COc1ccccc1N1CCN(CCC(O)c2ccc(F)c3ccccc23)CC1 (configuration not stated) : high band
OC(CCN1CC=C(c2ccc(F)cc2)CC1)c1ccc(Cl)cc1 (configuration not stated) : middle band
COc1ccccc1C1=CCN(CCC(O)c2ccc(F)cc2)CC1 (configuration not stated) : middle band
COC(=O)c1ccc(C(O)CCN2CCN(C(c3ccccc3)c3ccccc3)CC2)cc1 (configuration not stated) : middle band
COc1ccc(C(O)CCN2CCN(c3ccccc3OC)CC2)cc1 (configuration not stated) : middle band
OC(CCN1CCN(C(c2ccccc2)c2ccccc2)CC1)c1ccc(Br)cc1 (configuration not stated) : high band
COc1ccccc1C1=CCN(CCC(O)c2ccc(F)c3ccccc23)CC1 (configuration not stated) : low band
COc1ccccc1N1CCN(CCC(O)c2ccc3ccccc3c2)CC1 (configuration not stated) : low band
COc1ccc(C(O)CCN2CC=C(c3ccc(F)cc3)CC2)cc1 (configuration not stated) : low band
OC(CCN1CC=C(c2ccc(F)cc2)CC1)c1ccc(F)c(F)c1 (configuration not stated) : middle band
N#Cc1ccc(C(O)CCN2CC=C(c3ccc(F)cc3)CC2)cc1 (configuration not stated) : middle band
O=[N+]([O-])c1ccc(N2CCN(CCC(O)c3ccc(F)c4ccccc34)CC2)cc1 (configuration not stated) : low band
OC(CCN1CC=C(c2ccc(F)cc2)CC1)c1ccc2c(c1)OCO2 (configuration not stated) : high band
COc1ccc(C(O)CCN2CC=C(c3ccc(F)cc3)CC2)c(OC)c1 (configuration not stated) : low band
OC(CCN1CCN(C(c2ccccc2)c2ccccc2)CC1)c1ccc(F)c(Cl)c1 (configuration not stated) : high band
OC(CCN1CCN(c2ccccc2C(F)(F)F)CC1)c1ccc(F)cc1 (configuration not stated) : low band
O=[N+]([O-])c1ccc(N2CCC(NCCC(O)c3ccc(F)c(F)c3)CC2)c(C(F)(F)F)c1 (configuration not stated) : low band
N#Cc1ccc(N2CCC(NCCC(O)c3ccc(F)c4ccccc34)CC2)c(Br)c1 (configuration not stated) : high band
OC(CCN1CCN(C(c2ccccc2)c2ccccc2)CC1)c1ccc(Cl)cc1 (configuration not stated) : high band
OC(CCN1CCN(C(c2ccccc2)c2ccccc2)CC1)c1ccc(F)c2ccccc12 (configuration not stated) : middle band

###

METHOD_NOTES: Genotoxicity in Salmonella typhimurium TA1535 harboring pSK1002 assessed as survival at 0.0002 mg/ml in presence of Sprague-Dawley rat liver S9 fraction after by SOS/umu assay relative to control
Format: toxicity, organism-based
STATED_CONDITIONS: salmonella enterica subsp. enterica serovar typhimurium, read-out: Survival
MEASUREMENT_NAME: viability at 0.0002 mg/ml

OC(CCN1CCN(C(c2ccccc2)c2ccccc2)CC1)c1ccc(Br)cc1 (centres undefined) : 96.7%
OC(CCN1CCN(C(c2ccccc2)c2ccccc2)CC1)c1ccc(F)cc1 (centres undefined) : 101%
OC(CCN1CCN(C(c2ccccc2)c2ccccc2)CC1)c1ccc(Cl)cc1 (centres undefined) : 96.4%
OC(CCN1CCN(C(c2ccccc2)c2ccccc2)CC1)c1ccc(F)c(Cl)c1 (centres undefined) : 92.3%

###

METHOD_NOTES: Genotoxicity in Salmonella typhimurium TA1535 harboring pSK1002 assessed as survival at 0.031 mg/ml in presence of Sprague-Dawley rat liver S9 fraction after by SOS/umu assay relative to control
Assay type: toxicity, organism-based
STATED_CONDITIONS: salmonella enterica subsp. enterica serovar typhimurium, read-out: Survival
MEASUREMENT_NAME: viability at 0.031 mg/ml (%)

N#Cc1ccc(N2CCC(NCCC(O)c3ccc(F)c4ccccc34)CC2)c(C(F)(F)F)c1 (stereo in doubt; 72) : 35
Nc1ccc(N2CCC(NCCC(O)c3ccc(F)c4ccccc34)CC2)c(C(F)(F)F)c1 (stereo not drawn) : 39.1
COc1ccccc1N1CCN(CCC(O)c2ccc(F)c3ccccc23)CC1 (stereo not drawn) : 129
OC(CCN1CCN(C(c2ccccc2)c2ccccc2)CC1)c1ccc(F)c2ccccc12 (stereo not drawn) : 95.2
N#Cc1ccc(N2CCC(NCCC(O)c3ccc(F)c4ccccc34)CC2)c(Br)c1 (stereo not drawn) : 35.3
OC(CCN1CCN(c2ccc(F)cc2)CC1)c1ccc(F)c2ccccc12 (stereo not drawn) : 140
COc1ccccc1N1CCN(CCC(O)c2ccc(F)cc2)CC1 (stereo in doubt; 66) : 99.2
OC(CCN1CCN(c2ccccc2C(F)(F)F)CC1)c1ccc(F)cc1 (stereo not drawn) : 86.7
COc1ccccc1C1=CCN(CCC(O)c2ccc(F)c3ccccc23)CC1 (stereo not drawn) : 124
OC(CCN1CC=C(c2ccc(F)cc2)CC1)c1ccc2c(c1)OCO2 (stereo not drawn) : 137
Oc1ccc(C(O)CCN2CC=C(c3ccc(F)cc3)CC2)cc1 (stereo not drawn) : 110
OC(CCN1CCN(C(c2ccccc2)c2ccccc2)CC1)c1ccc(F)c(F)c1 (stereo not drawn) : 103
O=[N+]([O-])c1ccccc1N1CCN(CCC(O)c2ccc(F)c3ccccc23)CC1 (stereo not drawn) : 63.2
OC(CCN1CCN(c2ccccc2C(F)(F)F)CC1)c1ccc(F)c2ccccc12 (stereo in doubt; 55) : 101
COc1ccccc1C1=CCN(CCC(O)c2ccc(F)cc2)CC1 (stereo not drawn) : 81.8
O=[N+]([O-])c1ccc(N2CCN(CCC(O)c3ccc(F)c4ccccc34)CC2)cc1 (stereo not drawn) : 122
COC(=O)c1ccc(C(O)CCN2CC=C(c3ccc(F)cc3)CC2)cc1 (stereo not drawn) : 138
N#Cc1ccc(C(O)CCN2CC=C(c3ccc(F)cc3)CC2)cc1 (stereo not drawn) : 130

###

METHOD_NOTES: Genotoxicity in Salmonella typhimurium TA1535 harboring pSK1002 assessed as umu gene induction at 0.0005 mg/ml in presence of Sprague-Dawley rat liver S9 fraction after by SOS/umu assay relative to control
Assay type: toxicity, organism-based
STATED_CONDITIONS: salmonella enterica subsp. enterica serovar typhimurium, read-out: FC
Each record is given 1.0 if its reported fold induction at 0.0005 mg/ml is strictly below 0.6. Records at or above 0.6 are given 0.0.

OC(CCN1CCN(C(c2ccccc2)c2ccccc2)CC1)c1ccc(F)c(F)c1 (stereo not given) : 0.0
OC(CCN1CCN(C(c2ccccc2)c2ccccc2)CC1)c1ccc(F)cc1 (stereo not given) : 0.0
OC(CCN1CCN(C(c2ccccc2)c2ccccc2)CC1)c1ccc(Br)cc1 (stereo not given) : 1.0
OC(CCN1CCN(C(c2ccccc2)c2ccccc2)CC1)c1ccc(F)c(Cl)c1 (stereo not given) : 0.0

###

METHOD_NOTES: Genotoxicity in Salmonella typhimurium TA1535 harboring pSK1002 assessed as umu gene induction at 0.002 mg/ml in presence of Sprague-Dawley rat liver S9 fraction after by SOS/umu assay relative to control
Format: toxicity, organism-based
STATED_CONDITIONS: salmonella enterica subsp. enterica serovar typhimurium, read-out: FC
MEASUREMENT_NAME: fold induction at 0.002 mg/ml

OC(CCN1CCN(C(c2ccccc2)c2ccccc2)CC1)c1ccc(F)c2ccccc12 (stereo not given) : 0.8
N#Cc1ccc(N2CCC(NCCC(O)c3ccc(F)c4ccccc34)CC2)c(C(F)(F)F)c1 (stereo in doubt; 72) : 1
O=[N+]([O-])c1ccc(N2CCN(CCC(O)c3ccc(F)c4ccccc34)CC2)cc1 (stereo not given) : 0.9
COC(=O)c1ccc(C(O)CCN2CC=C(c3ccc(F)cc3)CC2)cc1 (stereo not given) : 1
Nc1ccc(N2CCC(NCCC(O)c3ccc(F)c4ccccc34)CC2)c(C(F)(F)F)c1 (stereo not given) : 1.4
N#Cc1ccc(C(O)CCN2CC=C(c3ccc(F)cc3)CC2)cc1 (stereo not given) : 1.1
N#Cc1ccc(N2CCC(NCCC(O)c3ccc(F)c4ccccc34)CC2)c(Br)c1 (stereo not given) : 0.8
OC(CCN1CC=C(c2ccc(F)cc2)CC1)c1ccc2c(c1)OCO2 (stereo not given) : 1
OC(CCN1CCN(C(c2ccccc2)c2ccccc2)CC1)c1ccc(F)cc1 (stereo not given) : 1.1
Oc1ccc(C(O)CCN2CC=C(c3ccc(F)cc3)CC2)cc1 (stereo not given) : 1.4

###

Quick reference for viability at 0.004 mg/ml among some compounds
METHOD_NOTES: Genotoxicity in Salmonella typhimurium TA1535 harboring pSK1002 assessed as survival at 0.004 mg/ml in absence of Sprague-Dawley rat liver S9 fraction after by SOS/umu assay relative to control
Assay type: toxicity, organism-based
STATED_CONDITIONS: salmonella enterica subsp. enterica serovar typhimurium, read-out: Survival
MEASUREMENT_NAME: viability at 0.004 mg/ml (%)

N#Cc1ccc(N2CCC(NCCC(O)c3ccc(F)c4ccccc34)CC2)c(Br)c1 (stereo not drawn) : 107
OC(CCN1CCN(C(c2ccccc2)c2ccccc2)CC1)c1ccc(Br)cc1 (stereo not drawn) : 114
O=[N+]([O-])c1ccccc1N1CCN(CCC(O)c2ccc(F)c3ccccc23)CC1 (stereo not drawn) : 106
COc1ccccc1C1=CCN(CCC(O)c2ccc(F)c3ccccc23)CC1 (stereo not drawn) : 76.7
Oc1ccc(C(O)CCN2CC=C(c3ccc(F)cc3)CC2)cc1 (stereo not drawn) : 97.1
N#Cc1ccc(N2CCC(NCCC(O)c3ccc(F)c4ccccc34)CC2)c(C(F)(F)F)c1 (stereo in doubt; 72) : 33.3
OC(CCN1CCN(c2ccc(F)cc2)CC1)c1ccc(F)c2ccccc12 (stereo not drawn) : 87.9
COc1ccccc1N1CCN(CCC(O)c2ccc(F)c3ccccc23)CC1 (stereo not drawn) : 66.5
O=[N+]([O-])c1ccc(N2CCN(CCC(O)c3ccc(F)c4ccccc34)CC2)cc1 (stereo not drawn) : 84.9
Nc1ccc(N2CCC(NCCC(O)c3ccc(F)c4ccccc34)CC2)c(C(F)(F)F)c1 (stereo not drawn) : 38.7
OC(CCN1CCN(C(c2ccccc2)c2ccccc2)CC1)c1ccc(F)c(Cl)c1 (stereo not drawn) : 119
OC(CCN1CCN(C(c2ccccc2)c2ccccc2)CC1)c1ccc(Cl)cc1 (stereo not drawn) : 102
OC(CCN1CCN(c2ccccc2C(F)(F)F)CC1)c1ccc(F)c2ccccc12 (stereo in doubt; 55) : 52.1
OC(CCN1CCN(C(c2ccccc2)c2ccccc2)CC1)c1ccc(F)cc1 (stereo not drawn) : 97.8
N#Cc1ccc(N2CCC(NCCC(O)c3ccc(F)c4ccccc34)CC2)c(Cl)c1 (stereo not drawn) : 32.2
COc1ccccc1C1=CCN(CCC(O)c2ccc(F)cc2)CC1 (stereo not drawn) : 104
N#Cc1ccc(C(O)CCN2CC=C(c3ccc(F)cc3)CC2)cc1 (stereo not drawn) : 94.7
COC(=O)c1ccc(C(O)CCN2CC=C(c3ccc(F)cc3)CC2)cc1 (stereo not drawn) : 99.4
OC(CCN1CCN(C(c2ccccc2)c2ccccc2)CC1)c1ccc(F)c(F)c1 (stereo not drawn) : 102
COc1ccccc1N1CCN(CCC(O)c2ccc(F)cc2)CC1 (stereo in doubt; 66) : 108
OC(CCN1CC=C(c2ccc(F)cc2)CC1)c1ccc2c(c1)OCO2 (stereo not drawn) : 114
OC(CCN1CCN(c2ccccc2C(F)(F)F)CC1)c1ccc(F)cc1 (stereo not drawn) : 107
OC(CCN1CCN(C(c2ccccc2)c2ccccc2)CC1)c1ccc(F)c2ccccc12 (stereo not drawn) : 69
